# assay.protocol: in vitro
# study.conditions: human, NCI H2052 cells
Reported CC50 at 24 h is given for each of the following molecules.
value.type: CC50 at 24 h

>>> print(df.to_string())
                                   molecule  test_value
0  CC1(CO)C[C@H](n2ccc(=O)[nH]c2=O)O[C@@H]1CO (mixture of isomers)    > 500 µM
1  COC(=O)C1(C)C[C@H](n2cc(F)c(=O)[nH]c2=O)O[C@@H]1CO (mixture of isomers)    > 500 µM
2  Cc1cn([C@@H]2CC(C)(CO)[C@@H](CO)O2)c(=O)[nH]c1=O (mixture of isomers)    > 500 µM
3  CCOC(=O)[C@@H]1O[C@H](n2cc(C)c(=O)[nH]c2=O)CC1(C)C(=O)OCC (stereo partly drawn)    > 460 µM
4  CC1(CO)C[C@H](n2ccc(N)nc2=O)O[C@@H]1CO (mixture of isomers)    > 500 µM
5  COC(=O)C1(C)C[C@@H](n2ccc(=O)[nH]c2=O)O[C@@H]1CO (mixture of isomers)      423 µM

---

# assay.protocol: MTT cell proliferation assay, ZR-75-1
# Type: cell-based
# study.conditions: human, ZR-75-1 cells, concentration causing 50% cell death of initial cell count over 24 hours, 1% DMSO
value.type: CC50 at 24 h

In [3]: df
Out[3]:
                                    compound  test_value
 0  CCOC(=O)[C@@H]1O[C@H](n2ccc(=O)[nH]c2=O)CC1(C)C(=O)OCC (stereo partly drawn)    > 460 µM
 1  CC1(CO)C[C@@H](n2ccc(=O)[nH]c2=O)O[C@@H]1CO (mixture of isomers)    > 500 µM
 2  COC(=O)C1(C)C[C@H](n2cc(C)c(=O)[nH]c2=O)O[C@@H]1CO (mixture of isomers)    > 500 µM
 3  CCOC(=O)[C@@H]1O[C@H](n2cc(F)c(=O)[nH]c2=O)CC1(C)C(=O)OCC (stereo in doubt)    > 460 µM
 4  CCOC(=O)[C@@H]1O[C@H](n2cc(C)c(=O)[nH]c2=O)CC1(C)C(=O)OCC (stereo partly drawn)    > 460 µM
 5  CC1(CO)CC(n2ccc(N)nc2=O)O[C@@H]1CO (mixture of isomers)    > 500 µM
 6  COC(=O)C1(C)C[C@H](n2cc(F)c(=O)[nH]c2=O)O[C@@H]1CO (mixture of isomers)    > 500 µM
 7  COC(=O)C1(C)C[C@H](n2ccc(=O)[nH]c2=O)O[C@@H]1CO (mixture of isomers)    > 500 µM
 8  COC(=O)C1(C)C[C@@H](n2cc(C)c(=O)[nH]c2=O)O[C@@H]1CO (mixture of isomers)    > 500 µM
 9  Cc1cc(=O)[nH]c(=O)n1[C@H]1CC(C)(CO)[C@@H](CO)O1 (mixture of isomers)    > 500 µM
10  Cc1cn([C@@H]2CC(C)(CO)[C@@H](CO)O2)c(=O)[nH]c1=O (mixture of isomers)    > 500 µM
11  COC(=O)C1(C)C[C@@H](n2ccc(=O)[nH]c2=O)O[C@@H]1CO (mixture of isomers)    > 500 µM
12  C[C@@]12CC(n3cc(F)c(N)nc3=O)O[C@@H]1COC2=O (mixture of isomers)    > 500 µM
13  C[C@@]12CC(n3ccc(N)nc3=O)O[C@@H]1COC2=O (mixture of isomers)    > 500 µM
14  CC1(CO)C[C@H](n2ccc(N)nc2=O)O[C@@H]1CO (mixture of isomers)    > 500 µM
15  Nc1ccn([C@@H]2O[C@H](CO)[C@@H](O)[C@@H]2O)c(=O)n1 [Cytarabine, reference compound]    > 500 µM
16  Cc1cc(=O)[nH]c(=O)n1[C@H]1CC2(C)C(=O)OC[C@H]2O1 (single isomer, unassigned)    > 500 µM
17  CC1(CO)C[C@H](n2ccc(=O)[nH]c2=O)O[C@@H]1CO (mixture of isomers)    > 500 µM
